The origin of these recorded values is BigSolDB 2.1.

conditions: in methanol, 293.15 K
reported_metric: solubility (mole fraction)
Respond using a number only.

Query block: Assign solubility (mole fraction) to the following record: CN1CCN(C2=Nc3cc(Cl)ccc3Nc3ccccc32)CC1
Result block: 0.00839

* * *

conditions: in n-pentanol, 283.15 K
reported_metric: solubility (mole fraction)
Respond using a number only.

Query block: Assign solubility (mole fraction) to the following record: CN1CCN(C2=Nc3cc(Cl)ccc3Nc3ccccc32)CC1
Result block: 0.0102

* * *

details: in isobutanol, 313.15 K
reported_metric: solubility (mole fraction)
Respond using a number only.

Query block: Assign solubility (mole fraction) to the following record: CN1CCN(C2=Nc3cc(Cl)ccc3Nc3ccccc32)CC1
Result block: 0.013

* * *

conditions: in isopentanol, 318.15 K
reported_metric: solubility (mole fraction)
Respond using a number only.

Query block: Assign solubility (mole fraction) to the following record: CN1CCN(C2=Nc3cc(Cl)ccc3Nc3ccccc32)CC1
Result block: 0.019

* * *

conditions: in acetonitrile, 318.15 K
reported_metric: solubility (mole fraction)
Respond using a number only.

Query block: Assign solubility (mole fraction) to the following record: CN1CCN(C2=Nc3cc(Cl)ccc3Nc3ccccc32)CC1
Result block: 0.00452

* * *

details: in methyl acetate, 278.15 K
reported_metric: solubility (mole fraction)
Respond using a number only.

Query block: Assign solubility (mole fraction) to the following record: CN1CCN(C2=Nc3cc(Cl)ccc3Nc3ccccc32)CC1
Result block: 0.0124

* * *

conditions: in n-pentanol, 313.15 K
reported_metric: solubility (mole fraction)
Respond using a number only.

Query block: Assign solubility (mole fraction) to the following record: CN1CCN(C2=Nc3cc(Cl)ccc3Nc3ccccc32)CC1
Result block: 0.0193

* * *

conditions: in n-butanol, 283.15 K
reported_metric: solubility (mole fraction)
Respond using a number only.

Query block: Assign solubility (mole fraction) to the following record: CN1CCN(C2=Nc3cc(Cl)ccc3Nc3ccccc32)CC1
Result block: 0.00891

* * *

details: in chloroform, 298.15 K
reported_metric: solubility (mole fraction)
Respond using a number only.

Query block: Assign solubility (mole fraction) to the following record: CN1CCN(C2=Nc3cc(Cl)ccc3Nc3ccccc32)CC1
Result block: 0.0741

* * *

conditions: in n-butanol, 313.15 K
reported_metric: solubility (mole fraction)
Respond using a number only.

Query block: Assign solubility (mole fraction) to the following record: CN1CCN(C2=Nc3cc(Cl)ccc3Nc3ccccc32)CC1
Result block: 0.0172

* * *

conditions: in acetone, 293.15 K
reported_metric: solubility (mole fraction)
Respond using a number only.

Query block: Assign solubility (mole fraction) to the following record: CN1CCN(C2=Nc3cc(Cl)ccc3Nc3ccccc32)CC1
Result block: 0.0172

* * *

settings: in sec-butanol, 293.15 K
reported_metric: solubility (mole fraction)
Respond using a number only.

Query block: Assign solubility (mole fraction) to the following record: CN1CCN(C2=Nc3cc(Cl)ccc3Nc3ccccc32)CC1
Result block: 0.00617

* * *

conditions: in THF, 313.15 K
reported_metric: solubility (mole fraction)

Query block: Assign solubility (mole fraction) to the following record: CN1CCN(C2=Nc3cc(Cl)ccc3Nc3ccccc32)CC1
Result block: 0.0978

* * *

conditions: in n-pentanol, 318.15 K
reported_metric: solubility (mole fraction)
Respond using a number only.

Query block: Assign solubility (mole fraction) to the following record: CN1CCN(C2=Nc3cc(Cl)ccc3Nc3ccccc32)CC1
Result block: 0.0213
